Data origin: patent US10479803B2

molecular target: human JAK1 (Homo sapiens)
pIC50: −log10 of the molar value.
measurementKind: pIC50

Q. I'd like to know its pIC50. The compound in question is N#CCC(CN1CCN(C(=O)c2ccc(C#N)cc2F)CC1)n1ccc(-c2ncnc3[nH]ccc23)c1 (stereo not shown) [Example 6]
A. > 8.00
